pIC50: −log10 of the molar value.
Recorded below: pIC50, system Amyloid-beta precursor protein (Homo sapiens).
METRIC: pIC50

1) COc1ccc(CCNc2nc(O)nc3ccccc23)cc1OC    4.98
2) CC(C)Nc1nc(NCc2ccccc2)c2ccccc2n1    5.36
3) CCNc1nc(NCCc2ccc(OC)c(OC)c2)c2ccccc2n1    5.54
4) c1ccc(CNc2nc(NC3CC3)nc3ccccc23)cc1    5.24
5) COc1ccc(CNc2nc(NC3CCN(Cc4ccccc4)CC3)nc3ccccc23)cc1OC    5.64
6) CNc1nc(NCCc2ccc(OC)c(OC)c2)c2ccccc2n1    5.18
7) COc1ccc(CCNc2nc(NC(N)=O)nc3ccccc23)cc1OC    4.84
8) CCCNc1nc(NCc2ccccc2)c2ccccc2n1    5.30
9) CNc1nc(NCCc2ccccc2)c2ccccc2n1    5.70
10) COc1ccc(CCNc2nc(Cl)nc3ccccc23)cc1OC    5.09
11) CCNc1nc(NCc2ccccc2)c2ccccc2n1    5.15
12) Clc1nc(NCCc2ccccc2)c2ccccc2n1    5.30

----------
pIC50: −log10 of the molar value.
Recorded below: pIC50, system Amyloid-beta precursor protein (Homo sapiens, UniProt P05067).
METRIC: pIC50

1. NC(=O)Nc1nc(NCCc2ccccc2)c2ccccc2n1    6.00
2. [N-]=[N+]=Nc1nc(NCc2ccccc2)c2ccccc2n1    5.59
3. COc1ccc(CNc2nc(N=[N+]=[N-])nc3ccccc23)cc1OC    5.14
4. Oc1nc(NCCc2ccccc2)c2ccccc2n1    4.95
5. COc1ccc(CNc2nc(NC(N)=O)nc3ccccc23)cc1OC    5.08
6. CCCNc1nc(NCCc2ccc(OC)c(OC)c2)c2ccccc2n1    5.37
7. COc1ccc(CNc2nc(N)nc3ccccc23)cc1OC    5.08
8. COc1ccc(CNc2nc(O)nc3ccccc23)cc1OC    5.11
9. CCNc1nc(NCCc2ccccc2)c2ccccc2n1    5.85
10. CC(C)Nc1nc(NCCc2ccccc2)c2ccccc2n1    5.42

----------
inhibition by entry:
# SYSTEM UNDER TEST: Amyloid-beta precursor protein (Homo sapiens)
# Sequence (P05067 whole entry, the tested form may be a part): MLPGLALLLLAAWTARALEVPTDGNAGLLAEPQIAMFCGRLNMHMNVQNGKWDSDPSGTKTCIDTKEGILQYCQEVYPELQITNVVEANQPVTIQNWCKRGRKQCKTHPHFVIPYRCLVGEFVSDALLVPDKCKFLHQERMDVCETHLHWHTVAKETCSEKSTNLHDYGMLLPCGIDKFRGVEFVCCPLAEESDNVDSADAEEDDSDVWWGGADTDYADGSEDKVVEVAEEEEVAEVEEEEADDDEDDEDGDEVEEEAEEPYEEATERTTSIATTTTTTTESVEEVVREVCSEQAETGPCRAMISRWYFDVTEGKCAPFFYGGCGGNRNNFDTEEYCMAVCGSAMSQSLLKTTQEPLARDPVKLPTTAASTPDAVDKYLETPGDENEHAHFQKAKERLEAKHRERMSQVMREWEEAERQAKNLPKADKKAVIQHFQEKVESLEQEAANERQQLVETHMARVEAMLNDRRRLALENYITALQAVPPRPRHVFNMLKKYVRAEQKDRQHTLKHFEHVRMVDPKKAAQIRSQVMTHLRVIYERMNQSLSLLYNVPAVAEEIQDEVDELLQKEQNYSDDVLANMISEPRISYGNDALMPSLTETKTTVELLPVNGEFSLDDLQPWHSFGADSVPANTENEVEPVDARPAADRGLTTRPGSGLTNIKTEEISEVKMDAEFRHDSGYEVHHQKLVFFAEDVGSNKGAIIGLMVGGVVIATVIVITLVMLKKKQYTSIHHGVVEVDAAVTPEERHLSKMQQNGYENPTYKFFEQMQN
# ASSAY INFO: Inhibition of HFIP-induced human recombinant amyloid beta (1 to 42 residues) aggregation expressed in Escherichia coli at 25 uM measured over 24 hrs by ThT-based fluorescence spectroscopic method relative to control
METRIC: inhibition

1) COc1ccc(CNc2nc(NC(C)=O)nc3ccccc23)cc1OC    < 10%
2) COc1ccc(CCNc2ncnc3ccccc23)cc1OC    36%
3) Nc1nc(NCCc2ccccc2)nc2ccccc12    50%
4) COc1ccc(CNc2nc(NC3CC3)nc3ccccc23)cc1OC    20%
5) CCCNc1nc(NCc2ccccc2)c2ccccc2n1    26%
6) [N-]=[N+]=Nc1nc(NCc2ccccc2)c2ccccc2n1    37%

----------
# ASSAY INFO: Antioxidant activity assessed as DPPH radical scavenging activity at 50 uM relative to control
# Assay type: functional
METRIC: Activity (%)

1) Oc1nc(NCCc2ccccc2)c2ccccc2n1    51.5
2) Oc1nc(NCc2ccccc2)c2ccccc2n1    47
3) COc1ccc(CNc2nc(O)nc3ccccc23)cc1OC    63.4
4) COc1ccc(CCNc2nc(O)nc3ccccc23)cc1OC    33.9
5) Oc1ccc(/C=C/c2cc(O)cc(O)c2)cc1    41.9
6) Cc1c(C)c2c(c(C)c1O)CCC(C)(C(=O)O)O2 (stereo unspecified)    99.6
